For each record, write down the corresponding CC50 at 3 h.
- assayMethodText: MTS assay, NIH 3T3 cells
- Type: cell-based, mouse
- experimentalParameters: mouse, NIH 3T3 fibroblast cells
Numbered stars: 1 amine (or outer) side, 2 acyl side, 3 side chain; on linkers, the order of the positions; unused ones are H or OH. Square brackets hold non-standard residues; d marks the D form. Peptide text beside a SMILES is read from it. X1 = CC(C)[C@H](C)N(CC(=O)[*:2])[*:1]; Nspe = C[C@H](NCC(=O)O)c1ccccc1; Nlys = NCCCCNCC(=O)O
Numbers only, in µM.

Known results for compounds:
C[C@@H](c1ccccc1)N(CC(N)=O)C(=O)CN(Cc1ccccc1)C(=O)CN(CCCCN)C(=O)CN(Cc1ccccc1)C(=O)CN(Cc1ccccc1)C(=O)CN(CCCCN)C(=O)CN(Cc1ccccc1)C(=O)CN(Cc1ccccc1)C(=O)CN(CCCCN)C(=O)CN(Cc1ccccc1)C(=O)CN(Cc1ccccc1)C(=O)CNCCCCN: 15
CC(C)[C@H](C)N(CC(=O)N(CCCCN)CC(=O)N(CC(=O)N(CC(=O)N(CCCCN)CC(=O)N(CC(=O)N(CC(=O)N(CCCCN)CC(=O)N(CC(=O)N(CC(N)=O)[C@@H](C)c1ccccc1)[C@@H](C)c1ccccc1)[C@@H](C)C(C)C)[C@@H](C)C(C)C)[C@@H](C)c1ccccc1)[C@@H](C)c1ccccc1)C(=O)CN(C(=O)CNCCCCN)[C@@H](C)C(C)C [1-Nsdp2,3,8,9, H-(Nlys-Nsdp-Nsdp-Nlys-Nspe-Nspe)2-NH2] (H-[Nlys][X1][X1][Nlys][Nspe][Nspe][Nlys][X1][X1][Nlys][Nspe][Nspe]-NH2): 19
C[C@H](NCC(=O)N(CC(=O)N(CCCCN)CC(=O)N(CC(=O)N(CC(=O)N(CCCCN)CC(=O)N(CC(=O)N(CC(=O)N(CCCCN)CC(=O)N(CC(=O)N(CC(=O)N(CCCCN)CC(N)=O)[C@@H](C)c1ccccc1)[C@@H](C)c1ccccc1)[C@@H](C)c1ccccc1)[C@@H](C)c1ccccc1)[C@@H](C)c1ccccc1)[C@@H](C)c1ccccc1)[C@@H](C)c1ccccc1)c1ccccc1 [1C, H-(Nspe-Nspe-Nlys)4-NH2] (H-[Nspe][Nspe][Nlys][Nspe][Nspe][Nlys][Nspe][Nspe][Nlys][Nspe][Nspe][Nlys]-NH2): 5.6

Q: So what does the record say about CC50 at 3 h for C[C@H](NCC(=O)N(CC(=O)N(CCCCN)CC(=O)N(CC(=O)N(CCCCN)CC(=O)N(CC(=O)N(CCCCN)CC(=O)N(CC(=O)N(CC(=O)N(CC(=O)N(CC(=O)N(CCCCN)CC(N)=O)[C@@H](C)c1ccccc1)[C@@H](C)c1ccccc1)[C@@H](C)c1ccccc1)[C@@H](C)c1ccccc1)[C@@H](C)c1ccccc1)[C@@H](C)c1ccccc1)[C@@H](C)c1ccccc1)c1ccccc1 [1scr, H-(Nspe)2-(Nlys-Nspe)3-(Nspe)3-Nlys-NH2] (H-[Nspe][Nspe][Nlys][Nspe][Nlys][Nspe][Nlys][Nspe][Nspe][Nspe][Nspe][Nlys]-NH2) ?
Ans: 8.5

----------
- Tested on: NIH 3T3 mouse fibroblast cells
- assayMethodText: MTS assay, NIH 3T3 cells
- Assay type: cell-based
Square brackets hold non-standard residues; d marks the D form. Peptide text beside a SMILES is read from it. Nspe = C[C@H](NCC(=O)O)c1ccccc1; Nlys = NCCCCNCC(=O)O
measurementType: ID50 (µM)
One number for each entry, in µM.

In the examples that follow, each entry is paired with its recorded ID50.
C[C@@H](c1ccccc1)N(CC(N)=O)C(=O)CN(C(=O)CN(CCCCN)C(=O)CN(C(=O)CN(C(=O)CN(CCCCN)C(=O)CN(C(=O)CN(C(=O)CN(CCCCN)C(=O)[C@@H]1CCCN1C(=O)CN(C(=O)CNCCCCN)[C@@H](C)c1ccccc1)[C@@H](C)c1ccccc1)[C@@H](C)c1ccccc1)[C@@H](C)c1ccccc1)[C@@H](C)c1ccccc1)[C@@H](C)c1ccccc1 [1-Pro3, H-Nlys-Nspe-L-Pro-(Nlys-Nspe-Nspe)3-NH2] (H-[Nlys][Nspe]P[Nlys][Nspe][Nspe][Nlys][Nspe][Nspe][Nlys][Nspe][Nspe]-NH2): 12
C[C@@H](c1ccccc1)N(CC(N)=O)C(=O)CN(Cc1ccccc1)C(=O)CN(CCCCN)C(=O)CN(Cc1ccccc1)C(=O)CN(Cc1ccccc1)C(=O)CN(CCCCN)C(=O)CN(Cc1ccccc1)C(=O)CN(Cc1ccccc1)C(=O)CN(CCCCN)C(=O)CN(Cc1ccccc1)C(=O)CN(Cc1ccccc1)C(=O)CNCCCCN [1achiral-Nspe12, H-(Nlys-Npm-Npm)3-(Nlys-Npm-Nspe)-NH2]: 15

With those in mind, consider the next compound.
Q: Request the reported ID50 associated with C[C@@H](c1ccccc1)N(CC(N)=O)C(=O)CN(C(=O)CN(CCCCN)C(=O)CN(Cc1ccccc1)C(=O)CN(Cc1ccccc1)C(=O)CN(CCCCN)C(=O)CN(C(=O)CN(C(=O)CN(CCCCN)C(=O)CN(Cc1ccccc1)C(=O)CN(Cc1ccccc1)C(=O)CNCCCCN)[C@@H](C)c1ccccc1)[C@@H](C)c1ccccc1)[C@@H](C)c1ccccc1 [1-Npm2,3,8,9, H-(Nlys-Npm-Npm-Nlys-Nspe-Nspe)2-NH2]
Ans: 15

----------
- Test system: NIH 3T3 mouse fibroblast cells
- assayMethodText: MTS assay, NIH 3T3 cells
- Format: cell-based
Square brackets hold non-standard residues; d marks the D form. Peptide text beside a SMILES is read from it. Nspe = C[C@H](NCC(=O)O)c1ccccc1; Nphe = O=C(O)CNCc1ccccc1; Nlys = NCCCCNCC(=O)O
measurementType: ID50 (µM)
Numbers only, in µM.

Batch: ID50 for all items listed.
1. C[C@@H](c1ccccc1)N(CC(N)=O)C(=O)CN(C(=O)CN(CCCCN)C(=O)[C@@H]1CCCN1C(=O)CN(C(=O)CN(CCCCN)C(=O)CN(C(=O)CN(C(=O)CN(CCCCN)C(=O)CN(C(=O)CN(C(=O)CNCCCCN)[C@@H](C)c1ccccc1)[C@@H](C)c1ccccc1)[C@@H](C)c1ccccc1)[C@@H](C)c1ccccc1)[C@@H](C)c1ccccc1)[C@@H](C)c1ccccc1 [1-Pro9] (H-[Nlys][Nspe][Nspe][Nlys][Nspe][Nspe][Nlys][Nspe]P[Nlys][Nspe][Nspe]-NH2)
2. C[C@@H](c1ccccc1)N(CC(=O)N(CC(=O)N(CCCCN)CC(=O)N(CC(=O)N(CC(=O)N(CCCCN)CC(=O)N(CC(=O)N(CC(=O)N(CCCCN)CC(=O)N(CC(=O)N(CC(N)=O)Cc1ccccc1)Cc1ccccc1)Cc1ccccc1)Cc1ccccc1)Cc1ccccc1)Cc1ccccc1)Cc1ccccc1)C(=O)CNCCCCN [1ach-Nspe2, H-(Nlys-Nspe-Npm)-(Nlys-Npm-Npm)3-NH2] (H-[Nlys][Nspe][Nphe][Nlys][Nphe][Nphe][Nlys][Nphe][Nphe][Nlys][Nphe][Nphe]-NH2)

Ans:
1: 24; 2: 11

----------
- assayMethodText: MTS assay, NIH 3T3 cells
- Format: cell-based, mouse
- experimentalParameters: mouse, NIH 3T3 fibroblast cells
Square brackets hold non-standard residues; d marks the D form. Peptide text beside a SMILES is read from it. Nspe = C[C@H](NCC(=O)O)c1ccccc1; Nphe = O=C(O)CNCc1ccccc1; Nlys = NCCCCNCC(=O)O
What CC50 at 3 h was measured for each of the following?
Answers are plain numbers, in µM.

CC(C)[C@H](C)N(CC(N)=O)C(=O)CN(C(=O)CN(CCCCN)C(=O)CN(C(=O)CN(C(=O)CN(CCCCN)C(=O)CN(C(=O)CN(C(=O)CN(CCCCN)C(=O)CN(C(=O)CN(C(=O)CNCCCCN)[C@@H](C)C(C)C)[C@@H](C)C(C)C)[C@@H](C)C(C)C)[C@@H](C)C(C)C)[C@@H](C)C(C)C)[C@@H](C)C(C)C)[C@@H](C)C(C)C [1-Nsdpall, H-(Nlys-Nsdp-Nsdp)4-NH2]: 64
C[C@@H](c1ccccc1)N(CC(N)=O)C(=O)CN(C(=O)CN(CCCCN)C(=O)CN(C(=O)CN(C(=O)CN(CCCCN)C(=O)[C@@H]1CCCN1C(=O)CN(C(=O)CN(CCCCN)C(=O)CN(C(=O)CN(C(=O)CNCCCCN)[C@@H](C)c1ccccc1)[C@@H](C)c1ccccc1)[C@@H](C)c1ccccc1)[C@@H](C)c1ccccc1)[C@@H](C)c1ccccc1)[C@@H](C)c1ccccc1 [1-Pro6] (H-[Nlys][Nspe][Nspe][Nlys][Nspe]P[Nlys][Nspe][Nspe][Nlys][Nspe][Nspe]-NH2): 18

Q: Recorded CC50 at 3 h of C[C@@H](c1ccccc1)N(CC(=O)N(CC(=O)N(CCCCN)CC(=O)N(CC(=O)N(CC(=O)N(CCCCN)CC(=O)N(CC(=O)N(CC(=O)N(CCCCN)CC(=O)N(CC(=O)N(CC(N)=O)Cc1ccccc1)Cc1ccccc1)Cc1ccccc1)Cc1ccccc1)Cc1ccccc1)Cc1ccccc1)Cc1ccccc1)C(=O)CNCCCCN [1ach-Nspe2, H-(Nlys-Nspe-Npm)-(Nlys-Npm-Npm)3-NH2] (H-[Nlys][Nspe][Nphe][Nlys][Nphe][Nphe][Nlys][Nphe][Nphe][Nlys][Nphe][Nphe]-NH2) , please.
Ans: 11
